biological target: T1, cynomolgus serum albumin (cynomolgus); assay: SPR (Biacore T200), albumin amine-coupled to CM5, Affimer analyte, pH 7.4
T1 construct: also called CSA; cyno serum albumin
T1 sequence (A2V9Z4 25-608): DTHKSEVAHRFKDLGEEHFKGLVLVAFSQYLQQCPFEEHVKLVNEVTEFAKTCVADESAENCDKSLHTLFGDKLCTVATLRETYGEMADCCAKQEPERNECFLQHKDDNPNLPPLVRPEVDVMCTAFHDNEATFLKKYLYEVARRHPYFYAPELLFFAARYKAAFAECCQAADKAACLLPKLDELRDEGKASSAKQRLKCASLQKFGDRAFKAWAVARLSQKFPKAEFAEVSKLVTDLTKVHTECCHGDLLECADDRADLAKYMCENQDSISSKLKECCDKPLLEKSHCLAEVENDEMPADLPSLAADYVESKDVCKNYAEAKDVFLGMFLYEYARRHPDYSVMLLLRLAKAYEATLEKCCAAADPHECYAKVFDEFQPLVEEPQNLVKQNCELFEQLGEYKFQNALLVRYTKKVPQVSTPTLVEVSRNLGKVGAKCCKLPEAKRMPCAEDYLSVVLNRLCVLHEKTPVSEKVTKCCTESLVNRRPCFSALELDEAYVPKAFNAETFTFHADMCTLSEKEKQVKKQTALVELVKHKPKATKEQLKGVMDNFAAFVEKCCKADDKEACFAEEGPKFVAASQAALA
Reported Endpoint: Kd (nM)

Past entries and their recorded results:
Binder	Unit String	Kd
HSA-41 (designed binder, also called HSA-41 parent; HSA-41 AH parent) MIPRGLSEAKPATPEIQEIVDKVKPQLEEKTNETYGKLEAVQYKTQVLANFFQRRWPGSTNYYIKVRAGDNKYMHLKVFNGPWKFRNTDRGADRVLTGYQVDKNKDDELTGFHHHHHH	nM	112
HSA-20 (designed binder) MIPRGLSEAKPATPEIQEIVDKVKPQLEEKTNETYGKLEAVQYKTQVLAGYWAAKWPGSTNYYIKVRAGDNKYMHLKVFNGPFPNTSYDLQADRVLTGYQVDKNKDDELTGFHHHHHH	nM	419

(I) HSA-18 (designed binder, also called HSA-18 monomer) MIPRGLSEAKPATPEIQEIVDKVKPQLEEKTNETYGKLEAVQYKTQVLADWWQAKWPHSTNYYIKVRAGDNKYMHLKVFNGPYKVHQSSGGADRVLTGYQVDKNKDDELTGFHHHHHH
(II) HSA-36 (designed binder) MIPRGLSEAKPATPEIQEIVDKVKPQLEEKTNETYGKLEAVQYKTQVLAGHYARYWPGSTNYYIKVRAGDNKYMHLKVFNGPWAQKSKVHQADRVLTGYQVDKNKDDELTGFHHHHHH
Task item: Given the two records I and II , choose the one whose Kd value is lower. Indicate which entry you chose by stating its label.
Reply: I

Each recorded value in this set is attributed to patent US20230272011A1.
